Where these numbers come from: patent US20260250524A1

Experiment: Solubility of polyphenols in water
Format: physicochemical
Conditions: in water
valueType: solubility

Q: Query: solubility; subject: O=C(O[C@@H]1Cc2c(O)cc(O)cc2O[C@@H]1c1ccc(O)c(O)c1)c1cc(O)c(O)c(O)c1 [ECG, epicatechin gallate]
Ans: < 1000 µg/mL
